biological target: Motilin receptor (Oryctolagus cuniculus); assay: Concentration required for in vitro motilin receptor binding, expressed as negative logarithm of IC50
Sequence (A5A4K8 whole entry): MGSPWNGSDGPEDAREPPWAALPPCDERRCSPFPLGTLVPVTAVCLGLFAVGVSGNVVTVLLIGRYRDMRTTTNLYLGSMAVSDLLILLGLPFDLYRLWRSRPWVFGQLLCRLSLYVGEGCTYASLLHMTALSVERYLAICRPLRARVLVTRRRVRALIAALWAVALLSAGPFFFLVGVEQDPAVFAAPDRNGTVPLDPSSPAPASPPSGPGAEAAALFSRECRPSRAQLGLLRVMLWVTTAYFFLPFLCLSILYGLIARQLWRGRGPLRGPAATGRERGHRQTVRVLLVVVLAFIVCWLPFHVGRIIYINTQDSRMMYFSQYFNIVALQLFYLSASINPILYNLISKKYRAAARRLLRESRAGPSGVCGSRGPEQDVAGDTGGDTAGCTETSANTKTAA
Value Type: IC50 (nM)

# Molecule, IC50 (nM)
measured = [
    ("CCC1OC(=O)C(C)C(O[C@H]2C[C@@](C)(OC)[C@@H](O)C(C)O2)C(C)[C@@H](OC2OC(C)CC(N(C)C)[C@H]2O)[C@]2(C)CC(C)=C(O2)[C@H](C)C(=O)[C@]1(C)OC (stereo partly drawn)", 9.12),
]

P = CCC1OC(=O)C(C)C(O[C@H]2C[C@@](C)(OC)[C@@H](O)C(C)O2)C(C)[C@@H](OC2OC(C)CC(N(C)C)[C@H]2O)[C@]2(C)CC(C)C3(O[C@]1(C)[C@H](O)[C@H]3C)O2 (stereo partly drawn)
Q = CC[C@H]1OC(=O)[C@H](C)[C@@H](O[C@H]2C[C@@](C)(OC)[C@@H](O)[C@H](C)O2)[C@H](C)[C@@H](O[C@@H]2O[C@H](C)C[C@H](N(C)C)[C@H]2O)[C@@]2(C)CC(C)=C(O2)[C@H](C)[C@@H](O)[C@]1(C)O
Request: Rank P against Q by their IC50 values and give the higher one. Answer = label.
Response: P
